- Tested on: green foxtail
- method: Upland foliar application test (Test 3)
- Format: in vivo
- conditionInfo: 30 g ai/a, foliar spray at 2-3 leaves, 30th day
endpointName: Herbicidal effects Green foxtail

molecule: COc1cc(OC)nc(Oc2ccccc2C=NOCc2cccc3ccccc23)n1 [compound 22]
endpointName: Herbicidal effects Green foxtail
valueObserved: 5 (0-5 (Death))

molecule: COc1cc(OC)nc(Oc2ccccc2C=NOCc2ccc(Cl)cc2Cl)n1 [Compound No. 17]
endpointName: Herbicidal effects Green foxtail
valueObserved: 5 (0-5 (Death))

molecule: COc1cc(OC)nc(Oc2ccccc2C=NOCC=Cc2cccc(Cl)c2Cl)n1 [compound 41]
endpointName: Herbicidal effects Green foxtail
valueObserved: 4 (6-10 (Severe damages))

molecule: COC(=O)c1ccccc1Oc1nc(OC)cc(OC)n1 [A, reference compound]
endpointName: Herbicidal effects Green foxtail
valueObserved: 5 (0-5 (Death))

molecule: C=CC(C)ON=Cc1ccccc1Oc1nc(OC)cc(OC)n1 (centres unmarked) [Compound No. 2]
endpointName: Herbicidal effects Green foxtail
valueObserved: 5 (0-5 (Death))
